Test: qHTS Assay for Lipid Storage Modulators in Drosophila S3 Cells;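 for cell number change: cells counted by Cell Tracker Red CMTPX staining in the red channel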
Details: BODIPY lipid droplet fluorescence, 18-24 h, cells fed with added oleic acid; measured here: cell count max response
Among all 320,000 compounds or so, about 2,100 (0.66%) were called active. Another 53% or so got no clear call; they are omitted. Many of the other results were omitted from the sample, so actives are more common in it than they were.
# cell number change per entry
Property Name: cell number change (%)

structure_string=Cc1ccc(S(=O)(=O)N2CCOCC2)cc1NC(=O)COC(=O)c1cnc(Cl)c(Cl)c1 assay_result=24.4
structure_string=Cc1ccc(NS(=O)(=O)c2ccc3c(c2)NC(=O)CO3)c(C)c1 assay_result=-9.44
structure_string=CCOc1ccc(-c2ccc(NS(=O)(=O)c3ccc([N+](=O)[O-])cc3)cc2)nn1 assay_result=0.33

* * *

Test: qHTS Assay for Lipid Storage Modulators in Drosophila S3 Cells; note: potency is the fitted concentration of half-maximal effect
Conditions: BODIPY lipid droplet fluorescence, 18-24 h, cells fed with added oleic acid; series mostly up to 46.1 µM
Out of some 320,000 compounds screened, about 2,100 (0.66%) were called active. Inconclusive results (about 53%) are left out. For the sample, actives were picked, then their nearest neighbours and some compounds at random.
Property Name: Potency

molecule=CC(C)CCNC(=O)CCc1nnc(COc2ccccc2)o1 assay_result=inactive
molecule=CCCC[N+](CC#CCO)(CC#Cc1ccccc1)CCCC assay_result=inactive
molecule=COc1cc(NC(=O)c2ccccc2NS(=O)(=O)c2ccc(Cl)s2)cc(OC)c1 assay_result="16.4 µM (active)"
molecule=CN(Cc1c(F)cccc1Cl)C(=O)CNC(=O)c1cccs1 assay_result=inactive
molecule=Cc1cccc(/C=N/NC(=O)c2cc(Br)ccc2O)n1 assay_result=inactive
molecule=CN1CCN(NC(=O)Nc2ccc(F)cc2)CC1 assay_result=inactive
molecule="OC1(c2ccccc2)CCN(Cc2ccccc2)C2CCCCC21 (configuration not stated)" assay_result=inactive
molecule=COc1ccc(C)cc1NC(=O)C(=O)NCc1ccncc1 assay_result=inactive
molecule=Cc1c(/C=N/NC(=O)c2cc(Br)ccc2O)c(=O)n(C)c(=O)n1C assay_result="5.8 µM (active)"
molecule="CC(=O)c1ccc(CC2SC(N)=NC2=O)cc1 (configuration not stated)" assay_result=inactive
molecule=COc1ccc(C)cc1NC(=O)c1ccccc1NS(=O)(=O)c1ccc(Cl)s1 assay_result=inactive
molecule=CCCCCCSc1cccc(-c2nc3cc(C)ccn3c2NC2CCCCC2)c1 assay_result=inactive

* * *

Test: qHTS Assay for Lipid Storage Modulators in Drosophila S3 Cells
Details: BODIPY lipid droplet fluorescence, 18-24 h, cells fed with added oleic acid; series mostly up to 46.1 µM
About 2,100 (0.66%) of roughly 320,000 compounds were called active. About 53% were inconclusive and are not listed. Calls come from the whole dose curve; as a rule, active = well fitted inhibition curve with a large enough effect in the signal ratio, with a control signal flat (not every such curve was filed as active); inconclusive = small, poorly fitted or top-dose-only effect, or effect the other way, or a change in a side signal; inactive = flat fitted curve, though single readings scatter; the % refers to the signal ratio. The list comes from a sample in which actives are over-represented; it also holds close analogues and randomly drawn compounds.
Labels: Yes for active, No for inactive

compound=Cc1ccnc(NC(=O)CCC(=O)N(CC(=O)NCc2ccccc2)Cc2ccccc2)c1 class_label=No
compound=O=C(CSc1nc2ccccc2[nH]1)N1c2ccccc2Sc2ccccc21 class_label=Yes
compound=CC(=O)c1cccc(NC(=O)c2cccc(S(=O)(=O)N3CCOCC3)c2)c1 class_label=No
compound=CCOc1ccccc1C(=O)N[C@H](C(=O)OCc1cc(=O)oc2cc(C)ccc12)C(C)C class_label=No
compound=O=C(CSc1nc2ccccc2[nH]1)N1CCCCC1 class_label=No
compound=COc1ccc(S(=O)(=O)N(C)CC(=O)N2CCCC2)cc1 class_label=No
compound=CN(Cc1c(F)cccc1Cl)C(=O)c1ccc2ccccc2n1 class_label=No
compound=CCN(CC(=O)NCc1ccc(F)cc1)C(=O)c1cccnc1SC class_label=No
compound=CN(Cc1c(F)cccc1Cl)C(=O)c1cc2ccccc2o1 class_label=No
compound=CC(C)NC(=O)CN(Cc1ccc2c(c1)OCO2)C(=O)CCC(=O)Nc1ccccn1 class_label=Yes
compound=COc1ccc(CN(CC(=O)NCc2ccc(F)cc2)C(=O)CCC(=O)Nc2cc(C)ccn2)cc1 class_label=Yes
compound=CC(C)(C)c1nnc(NC(=O)c2ccc3c(c2)OCO3)s1 class_label=No
compound=CC(C)C(=O)Nc1nc(-c2ccc(S(=O)(=O)N3CCOCC3)cc2)cs1 class_label=Yes
compound=COc1ccc(C(=O)Nc2cc(OC)nc(OC)n2)cc1 class_label=No
compound=COCCNC(=S)Nc1ccc(S(=O)(=O)Nc2ncccn2)cc1 class_label=No
compound=Cc1cc(C(=O)N(C)Cc2c(F)cccc2Cl)c2ccccc2n1 class_label=Yes
compound=CCOc1ncccc1C(=O)N(CC)CC(=O)NCc1ccc(F)cc1 class_label=Yes
compound=CN(C)C(=O)Cn1cc(S(=O)(=O)Cc2ccccc2)c2ccccc21 class_label=Yes
compound="O=C(NCC1CCCN1S(=O)(=O)c1ccccc1)C(=O)NC1CC1 (stereo unspecified)" class_label=No
compound=O=C1N=C2N(CCN3CCCCC3)c3ccccc3N2/C1=C\c1ccc([N+](=O)[O-])o1 class_label=No
compound=C[C@H](NC(N)=O)C(=O)Nc1ccc2c(c1)OCO2 class_label=No
compound=O=C(Cn1cc(S(=O)(=O)Cc2ccccc2)c2ccccc21)N1CCOCC1 class_label=No
compound=O=C(NCC(=O)N1CCN(c2ccccc2F)CC1)c1ccc(Br)o1 class_label=No
compound=CCCn1c(N)c(N(CCOC)C(=O)/C=C/c2ccc(C(=O)OC)cc2)c(=O)[nH]c1=O class_label=No
compound="O=C(NS(=O)(=O)Oc1cccc(Cl)c1Cl)OC[C@@H]1CCCN2CCCCC12 (stereo partly specified)" class_label=No
compound=Cc1ccc(Cc2nc(-c3cccnc3)no2)cc1 class_label=No
compound=CCN(CC)C(=O)Cn1cc(S(=O)(=O)Cc2cccc([N+](=O)[O-])c2)c2ccccc21 class_label=No
compound=Nc1cc(N)nc(SCC(=O)N2CCCCC2)n1 class_label=No
compound="CCC(C)N1CCNCC1 (stereo unspecified)" class_label=No
compound=CCOC(=O)c1c(-c2ccccc2)csc1NC(=O)CSc1nc(N)cc(N)n1 class_label=No
compound=O=C(CSc1nc2ccccc2s1)N1c2ccccc2Sc2ccccc21 class_label=No
compound=O=C(COC(=O)Cc1ccc(Br)cc1)NC1CCCCCC1 class_label=No
compound=CCC(C)(C)NC(=O)CN(Cc1ccc2c(c1)OCO2)C(=O)CCC(=O)Nc1ccccn1 class_label=No
compound=O=C(Nc1ccc(S(=O)(=O)N2CCOCC2)cc1)c1cccc(Br)c1 class_label=No
compound="COc1ccccc1NC(=O)C1CCCN(c2cnccn2)C1 (stereo unspecified)" class_label=No
compound="CC(=O)OCC(OC(C)=O)C(OC(C)=O)C(OC(C)=O)C(=O)Nc1ccccc1 (stereo unspecified)" class_label=No
compound="CCOC(=O)C1=C(COC(=O)CCC(=O)c2ccc(C)cc2)NC(=O)NC1C (stereo unspecified)" class_label=No
compound=CC(C)CCNC(=O)CN(Cc1ccc2c(c1)OCO2)C(=O)CCC(=O)Nc1ccccn1 class_label=No
compound="O=C1[C@@H]2Cc3c([nH]c4ccccc34)C(c3ccc([N+](=O)[O-])cc3)N2C(=O)CN1C1CC1 (stereo partly specified)" class_label=No
compound=O=C(/C=C/c1ccc2c(c1)OCO2)Nc1nncs1 class_label=No
compound=O=C(Nc1cccc(S(=O)(=O)N2CCCC2)c1)c1cccc(S(=O)(=O)N2CCOCC2)c1 class_label=Yes
